Target: Pyk2 (Homo sapiens, UniProt Q14289)
Construct: purchased Promega V4083
Sequence (Q14289 whole entry): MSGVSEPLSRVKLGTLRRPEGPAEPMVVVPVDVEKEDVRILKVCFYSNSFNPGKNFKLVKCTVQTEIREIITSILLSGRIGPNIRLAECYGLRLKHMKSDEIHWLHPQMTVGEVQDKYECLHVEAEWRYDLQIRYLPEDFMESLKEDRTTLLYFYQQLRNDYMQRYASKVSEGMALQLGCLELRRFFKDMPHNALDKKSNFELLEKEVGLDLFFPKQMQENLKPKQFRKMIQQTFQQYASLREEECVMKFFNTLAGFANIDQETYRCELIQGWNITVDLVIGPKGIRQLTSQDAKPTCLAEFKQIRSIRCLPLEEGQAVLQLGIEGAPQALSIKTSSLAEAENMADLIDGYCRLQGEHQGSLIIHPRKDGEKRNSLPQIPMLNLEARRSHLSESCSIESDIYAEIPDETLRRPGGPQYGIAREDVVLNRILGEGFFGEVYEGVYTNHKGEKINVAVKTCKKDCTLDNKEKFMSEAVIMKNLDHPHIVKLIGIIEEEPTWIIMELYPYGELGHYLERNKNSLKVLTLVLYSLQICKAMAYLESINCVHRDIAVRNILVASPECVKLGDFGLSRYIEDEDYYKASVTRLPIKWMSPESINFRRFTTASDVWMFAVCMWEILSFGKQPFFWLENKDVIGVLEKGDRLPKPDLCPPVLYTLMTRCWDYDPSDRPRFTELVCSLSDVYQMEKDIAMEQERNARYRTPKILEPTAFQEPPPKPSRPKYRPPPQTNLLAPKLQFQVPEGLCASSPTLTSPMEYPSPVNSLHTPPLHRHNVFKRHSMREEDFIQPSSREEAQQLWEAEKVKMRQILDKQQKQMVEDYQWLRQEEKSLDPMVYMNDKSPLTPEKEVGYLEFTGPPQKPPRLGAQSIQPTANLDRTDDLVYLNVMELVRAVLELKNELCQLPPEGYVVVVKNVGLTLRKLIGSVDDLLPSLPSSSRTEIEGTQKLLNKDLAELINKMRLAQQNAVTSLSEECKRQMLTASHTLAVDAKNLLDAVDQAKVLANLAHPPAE
Assay: Eurofins kinase screening and profiling, Pyk2
Assay type: biochemical
Settings: Pyk2, Eurofins
measurement_label: IC50 (nM)
Give the value in nM but do not write nM after it.

Observed IC50 on Pyk2 (Homo sapiens, UniProt Q14289) for CNC(=O)c1cccc(C)c1Nc1nc(Nc2ccc(N3CCN([C@H]4C5CC6CC4C[C@](O)(C6)C5)CC3)cc2OC)ncc1C(F)(F)F , please.
301

###

Target: FAK (Homo sapiens, UniProt Q05397)
Sequence (Q05397 whole entry): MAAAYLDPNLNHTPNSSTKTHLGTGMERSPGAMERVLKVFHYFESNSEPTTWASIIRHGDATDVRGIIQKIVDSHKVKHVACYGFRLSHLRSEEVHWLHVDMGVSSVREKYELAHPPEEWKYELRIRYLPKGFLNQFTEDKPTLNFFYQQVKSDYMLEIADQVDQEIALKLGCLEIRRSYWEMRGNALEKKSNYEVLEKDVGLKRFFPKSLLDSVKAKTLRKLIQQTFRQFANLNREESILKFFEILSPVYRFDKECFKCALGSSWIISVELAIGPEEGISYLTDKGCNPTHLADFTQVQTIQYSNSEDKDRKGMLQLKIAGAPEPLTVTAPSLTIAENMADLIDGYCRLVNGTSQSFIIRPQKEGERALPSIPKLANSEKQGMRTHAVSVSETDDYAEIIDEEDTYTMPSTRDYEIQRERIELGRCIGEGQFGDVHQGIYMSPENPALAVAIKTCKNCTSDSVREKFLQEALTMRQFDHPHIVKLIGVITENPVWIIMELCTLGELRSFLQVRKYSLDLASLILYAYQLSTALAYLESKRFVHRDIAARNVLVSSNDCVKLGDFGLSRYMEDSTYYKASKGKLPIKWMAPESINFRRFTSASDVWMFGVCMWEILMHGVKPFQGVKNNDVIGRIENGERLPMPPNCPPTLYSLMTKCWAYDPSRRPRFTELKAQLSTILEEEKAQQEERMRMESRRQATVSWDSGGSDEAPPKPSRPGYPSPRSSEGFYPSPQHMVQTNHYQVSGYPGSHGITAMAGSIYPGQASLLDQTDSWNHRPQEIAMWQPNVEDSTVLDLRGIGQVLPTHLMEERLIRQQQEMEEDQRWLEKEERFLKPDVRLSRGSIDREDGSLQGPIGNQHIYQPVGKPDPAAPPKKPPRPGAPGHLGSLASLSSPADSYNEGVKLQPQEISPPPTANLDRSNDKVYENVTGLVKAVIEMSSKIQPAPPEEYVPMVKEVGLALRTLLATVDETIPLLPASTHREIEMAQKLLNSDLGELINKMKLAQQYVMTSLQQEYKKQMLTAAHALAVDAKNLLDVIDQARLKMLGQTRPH
Test: Eurofins kinase screening and profiling, FAK
Assay type: biochemical
Parameters: purchased Promega V1971
Settings: Eurofins
measurement_label: IC50 (nM)
# unit: nM | format: bare number

Consider the compound CNC(=O)c1cccc(C)c1Nc1nc(Nc2ccc(N3CCN([C@H]4C5CC6CC4C[C@](O)(C6)C5)CC3)cc2OC)ncc1C(F)(F)F and give its measured IC50.
78
